- test-summary: counter assay for TAg ATPase ADP read-out – biochemical, ADP-Hunter, fluorescence, counter-screen (AID 2501);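 note: purified T antigen ATPase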
- condition-summary: series mostly up to 100 µM
About 1,200 (55%) of roughly 2,200 compounds were called active. So high a share suggests a set chosen from earlier hits. The list shows a part of the results.
observation-type: IC50

Solved cases (5 shown):
CCC(C)(C)n1nnnc1C(c1ccc2ncccc2c1)N1CCN(c2ccc(O)cc2)CC1 (stereo unspecified); 5.17 µM (active)
Cc1ccc(OCCC(=O)N2CCN(c3ccc(O)cc3)CC2)cc1; 4.43 µM (active)
O=C(C1CC1)N1CCN(c2ccc(O)cc2)CC1; 3.4 µM (active)
Oc1ccc(N2CCN(C(c3ccncc3)c3nnnn3C3CCCC3)CC2)cc1 (stereo unspecified); 3.39 µM (active)
Cc1nnc(C)c2c(C)n(-c3ccc4ncccc4c3)c(C)c12; inactive

According to the records, this compound Cc1ccc(N(C=NC#N)CC(=O)N2CCN(c3ccccc3)CC2)cc1 displays IC50 of inactive

###

- test-summary: counter assay for TAg ATPase ADP read-out – biochemical, ADP-Hunter, fluorescence, counter-screen (AID 2501);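 note: purified T antigen ATPase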
- condition-summary: series mostly up to 100 µM
Among all 2,200 compounds or so, about 1,200 (55%) were called active. No cut-off is given here; in the data, nearly all actives have IC50 up to about 92 µM. So high a share suggests a set chosen from earlier hits. Some of the results follow.
Choose one outcome from this list and give only that: T (active), F (inactive)

Some solved entries appear below for comparison.
CN(C)c1ccc(NC(=O)COC(=O)CCC(=O)c2ccc(F)cc2)cc1; T
Cn1cccc1Cc1nnc(SCC(=O)NCC2CCCO2)n1C (stereo unspecified); F

Please share the test call associated with O=C(NCC1CCCO1)c1ccc2c(c1)N(Cc1ccc(F)cc1)CCS2 (stereo unspecified) .
F

Please share the test call associated with Cc1c(-c2ccccc2)oc2c(C(=O)OCC(=O)Nc3ccc(C(N)=O)cc3)cccc2c1=O .
F

Please share the test call associated with CCOC(=O)c1ccc(NC(=O)CC2NCCNC2=O)cc1 (stereo unspecified) .
F

Please share the test call associated with Cc1nn(CC(=O)Nc2ccc(N(C)C)cc2)c(C)c1[N+](=O)[O-] .
T

###

- test-summary: counter assay for TAg ATPase ADP read-out – biochemical, ADP-Hunter, fluorescence, counter-screen (AID 2501);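 note: purified T antigen ATPase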
- condition-summary: series mostly up to 100 µM
The campaign covered roughly 2,200 compounds. About 1,200 (55%) were called active. No cut-off is given here; in the data, nearly all actives have IC50 up to about 92 µM. So high a share suggests a set chosen from earlier hits. Some of the results follow.
Choose one outcome from this list and give only that: Yes (active), No (inactive)

Please share the test call associated with O=C(Nc1nc(-c2ccco2)c(-c2ccco2)s1)c1cnccn1 .
No

Please share the test call associated with CCS(=O)(=O)C1=NN2C(=N)/C(=C\c3ccc(OC(=O)c4ccco4)c(OC)c3)C(=O)N=C2S1 .
Yes

Please share the test call associated with C/C(CC(=O)Nc1ccc(N(C)C)cc1)=N\NC(=O)c1cnccn1 .
Yes

###

- test-summary: counter assay for TAg ATPase ADP read-out – biochemical, ADP-Hunter, fluorescence, counter-screen (AID 2501);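 note: purified T antigen ATPase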
- condition-summary: series mostly up to 100 µM
Among all 2,200 compounds or so, about 1,200 (55%) were called active. No cut-off is given here; in the data, nearly all actives have IC50 up to about 92 µM. The set was probably picked from earlier hits. This is one part of the list.
Choose one outcome from this list and give only that: true = active, false = inactive

Some solved entries appear below for comparison.
Cc1ccccc1NC(=O)c1cc(N)ccc1N1CCCCC1; true
CC(C)CCn1c(=O)c2ccccc2n2c(=S)[nH]nc12; true
S=c1nc[nH]c2nc[nH]c12; false
CCCCN(CC)Cc1ccc(CNC(=S)Nc2ccc(C)cc2Cl)o1; false
C=CCOc1ccc(C2NC(=S)NC(c3ccccc3)=C2C(C)=O)cc1OC (stereo unspecified); false
COc1ccc(N=Nc2c(N)n[nH]c2N)cc1; true

Please share the test call associated with Nc1cccc2nsnc12 .
true

Please share the test call associated with O=S(=O)(Nc1cccc(C(F)(F)F)c1)c1cnc[nH]1 .
false

Please share the test call associated with COc1cc(NS(=O)(=O)c2ccc(NC(=S)NC(=O)/C=C/c3ccco3)cc2)ncn1 .
false

Please share the test call associated with Cc1n[nH]c(=O)nc1Nc1ccc(O)cc1 .
true

Please share the test call associated with CN(Cc1ccno1)Cc1cn(C)nc1-c1ccc(Oc2ccccc2)cc1 .
false

Please share the test call associated with O=C(CN1CCN(S(=O)(=O)c2ccc(F)cc2)CC1)c1ccc(O)c(O)c1 .
true

Please share the test call associated with CC(C)N1CC(C(=O)O)CC1=O (stereo unspecified) .
false

Please share the test call associated with COc1cc(/C=N/Nc2nc3ccccc3[nH]c2=O)ccc1O .
true

Please share the test call associated with Cc1c(Cl)cccc1NC(=S)N(CCN(C)C)C(C)c1ccco1 (stereo unspecified) .
false

Please share the test call associated with CCOc1cc(/C=C2\C(=O)NN(c3ccccc3)C2=O)cc([N+](=O)[O-])c1O .
true

Please share the test call associated with O=C1CCCN1CCCNC(=S)Nc1ccc(Nc2ccccc2)cc1 .
true

Please share the test call associated with COc1cccc(N2CC(=O)Nc3c(oc4nc(-c5ccccc5)cc(C)c34)C2=O)c1 .
false

Please share the test call associated with COc1cccc(/C=N/n2c(-c3cc(C)[nH]n3)n[nH]c2=S)c1O .
true

Please share the test call associated with Cc1nnc(Nc2ccc(O)cc2)[nH]c1=O .
true

Please share the test call associated with Cc1ccsc1/C=C1/C(=O)NN(c2ccccc2)C1=O .
true
